// provenance: patent USRE47193E1

Molecular target: human TLR8 (Homo sapiens, UniProt Q9NR97)
Construct: host or cells: HEK-293, then stably transfected with pNiFty2(NF-kappaB)-luciferase reporter
Experiment: HEK-293 human TLR8 NF-kappaB luciferase reporter assay (CL097)
Format: cell-based
Conditions: HEK-hTLR8; CL097 12 ug/ml; individual tests 1-3; read-out: IC50
METRIC: IC50

Report IC50 for CCN(CCO)CCCC(C)Nc1ccnc2cc(Cl)ccc12 (stereo not shown) [HCQ, hydroxychloroquine, reference compound] please.
> 10 µM

* * *

Target: human TLR8 (Homo sapiens, UniProt Q9NR97)
Construct: host or cells: HEK-293, then stably transfected with pNiFty2(NF-kappaB)-luciferase reporter
Sequence (Q9NR97 27-1041): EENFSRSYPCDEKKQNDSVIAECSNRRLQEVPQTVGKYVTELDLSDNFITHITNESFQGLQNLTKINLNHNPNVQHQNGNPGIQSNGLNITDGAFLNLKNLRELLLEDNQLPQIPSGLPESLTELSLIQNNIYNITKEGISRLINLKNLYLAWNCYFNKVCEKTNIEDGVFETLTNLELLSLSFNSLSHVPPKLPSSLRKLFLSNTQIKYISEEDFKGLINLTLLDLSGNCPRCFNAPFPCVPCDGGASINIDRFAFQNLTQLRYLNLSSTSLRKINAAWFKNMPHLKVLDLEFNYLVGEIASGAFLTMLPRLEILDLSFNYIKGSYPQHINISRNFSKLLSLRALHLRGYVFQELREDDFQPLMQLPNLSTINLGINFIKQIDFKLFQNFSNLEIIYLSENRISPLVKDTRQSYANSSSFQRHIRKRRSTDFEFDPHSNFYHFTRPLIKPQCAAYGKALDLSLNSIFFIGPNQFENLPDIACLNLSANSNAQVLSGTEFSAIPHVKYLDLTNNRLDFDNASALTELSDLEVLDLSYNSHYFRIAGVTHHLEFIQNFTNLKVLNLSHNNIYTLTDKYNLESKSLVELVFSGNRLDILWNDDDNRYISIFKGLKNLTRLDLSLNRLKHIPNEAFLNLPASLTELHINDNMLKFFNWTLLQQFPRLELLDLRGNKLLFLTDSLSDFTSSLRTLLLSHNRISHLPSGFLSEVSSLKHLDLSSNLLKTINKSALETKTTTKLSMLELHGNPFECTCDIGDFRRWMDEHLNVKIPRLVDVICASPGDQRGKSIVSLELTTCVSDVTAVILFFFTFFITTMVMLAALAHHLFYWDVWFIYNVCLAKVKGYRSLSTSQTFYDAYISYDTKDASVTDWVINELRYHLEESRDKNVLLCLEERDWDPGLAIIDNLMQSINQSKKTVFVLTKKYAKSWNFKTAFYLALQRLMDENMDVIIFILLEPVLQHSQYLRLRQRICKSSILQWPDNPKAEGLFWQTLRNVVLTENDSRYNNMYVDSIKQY
Assay: HEK-293 human TLR8 NF-kappaB luciferase reporter assay (CL097)
Type: cell-based
Settings: HEK/hTLR8 IC50, HEK-293 assay format
METRIC: IC50 (µM)
The figure you give is taken to be in µM; do not add the unit.

Enter reported IC50 observed with human TLR8 (Homo sapiens, UniProt Q9NR97) for C[C@@H]1CN(c2ccc(C#N)c3ncccc23)C[C@H](CNCc2ccccc2)O1
0.119

* * *

Target: mouse TLR7 (Mus musculus, UniProt P58681)
Sequence (P58681 27-1050): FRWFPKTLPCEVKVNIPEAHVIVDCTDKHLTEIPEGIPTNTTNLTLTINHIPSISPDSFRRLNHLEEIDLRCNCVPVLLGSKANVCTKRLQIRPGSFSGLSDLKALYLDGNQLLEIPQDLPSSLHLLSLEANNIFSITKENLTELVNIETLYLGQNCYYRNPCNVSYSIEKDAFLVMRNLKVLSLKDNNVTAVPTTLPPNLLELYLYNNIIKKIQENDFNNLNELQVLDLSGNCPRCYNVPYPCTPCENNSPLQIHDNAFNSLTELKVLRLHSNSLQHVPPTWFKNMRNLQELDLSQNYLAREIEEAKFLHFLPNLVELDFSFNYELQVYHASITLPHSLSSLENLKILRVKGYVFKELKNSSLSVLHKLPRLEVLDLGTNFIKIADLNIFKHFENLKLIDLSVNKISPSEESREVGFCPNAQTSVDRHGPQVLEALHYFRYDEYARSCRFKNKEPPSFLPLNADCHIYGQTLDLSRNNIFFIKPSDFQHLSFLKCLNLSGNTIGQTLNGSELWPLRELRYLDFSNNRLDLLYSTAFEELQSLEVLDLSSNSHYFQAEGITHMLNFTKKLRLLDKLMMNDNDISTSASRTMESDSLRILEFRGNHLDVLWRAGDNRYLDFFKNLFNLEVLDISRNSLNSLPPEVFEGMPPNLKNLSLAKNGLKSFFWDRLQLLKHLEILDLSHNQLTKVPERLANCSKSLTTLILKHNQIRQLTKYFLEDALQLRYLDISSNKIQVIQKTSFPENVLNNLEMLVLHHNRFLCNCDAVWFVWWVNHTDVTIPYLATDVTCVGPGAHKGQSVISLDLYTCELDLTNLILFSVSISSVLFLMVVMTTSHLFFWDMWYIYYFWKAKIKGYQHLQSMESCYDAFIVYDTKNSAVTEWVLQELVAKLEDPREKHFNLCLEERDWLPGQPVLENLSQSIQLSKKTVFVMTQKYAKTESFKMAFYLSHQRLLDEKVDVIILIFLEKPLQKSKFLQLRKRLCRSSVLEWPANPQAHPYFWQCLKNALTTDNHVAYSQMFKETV
Test: Short-term in vivo (STIV) assay: oral dosing, R848 s.c., plasma IL-6
Set-up: female BALB/c mice (Jackson Labs, Bar Harbor, Me.) were dosed by oral gavage; tissue Jackson Labs; host or cells: living female BALB/c mice; plasma IL-6 after s.c. R848
Conditions: 6 h; 33 mg/kg
Item-by-item account of % Suppression vs. Vehicle
The figure you give is taken to be in %; do not add the unit.

Some solved entries appear below for comparison.
INSERT INTO measurements (molecule, observed_result) VALUES
  ('C[C@@H]1CN(c2ccc(C#N)c3ncccc23)C[C@H](CN2CCN[C@@H](C)C2)O1', 98),
  ('CCCN1CCN(C[C@H]2CN(c3ccc(C#N)c4ncccc34)C[C@@H](C)O2)CC1', 99),
  ('Cc1cc(CO)cc(-c2ccc(C#N)c3ncccc23)c1', 35),
  ('CC1CN(c2ccc(C#N)c3ncccc23)CC(CN2CCC(NC(=O)c3ccccc3)CC2)O1 (centres unmarked)', 86);

Attention now turns to another entry.
Report % Suppression vs. Vehicle for CC1CN(c2ccc(C#N)c3ncccc23)CC(CN2CCN(C)CC2C)O1 (centres unmarked) please.
100
